Source of measurements: ChEMBL document CHEMBL1800036

- targetOfAssay: Histone deacetylase 5 (Homo sapiens, UniProt Q9UQL6)
- Sequence (Q9UQL6 whole entry): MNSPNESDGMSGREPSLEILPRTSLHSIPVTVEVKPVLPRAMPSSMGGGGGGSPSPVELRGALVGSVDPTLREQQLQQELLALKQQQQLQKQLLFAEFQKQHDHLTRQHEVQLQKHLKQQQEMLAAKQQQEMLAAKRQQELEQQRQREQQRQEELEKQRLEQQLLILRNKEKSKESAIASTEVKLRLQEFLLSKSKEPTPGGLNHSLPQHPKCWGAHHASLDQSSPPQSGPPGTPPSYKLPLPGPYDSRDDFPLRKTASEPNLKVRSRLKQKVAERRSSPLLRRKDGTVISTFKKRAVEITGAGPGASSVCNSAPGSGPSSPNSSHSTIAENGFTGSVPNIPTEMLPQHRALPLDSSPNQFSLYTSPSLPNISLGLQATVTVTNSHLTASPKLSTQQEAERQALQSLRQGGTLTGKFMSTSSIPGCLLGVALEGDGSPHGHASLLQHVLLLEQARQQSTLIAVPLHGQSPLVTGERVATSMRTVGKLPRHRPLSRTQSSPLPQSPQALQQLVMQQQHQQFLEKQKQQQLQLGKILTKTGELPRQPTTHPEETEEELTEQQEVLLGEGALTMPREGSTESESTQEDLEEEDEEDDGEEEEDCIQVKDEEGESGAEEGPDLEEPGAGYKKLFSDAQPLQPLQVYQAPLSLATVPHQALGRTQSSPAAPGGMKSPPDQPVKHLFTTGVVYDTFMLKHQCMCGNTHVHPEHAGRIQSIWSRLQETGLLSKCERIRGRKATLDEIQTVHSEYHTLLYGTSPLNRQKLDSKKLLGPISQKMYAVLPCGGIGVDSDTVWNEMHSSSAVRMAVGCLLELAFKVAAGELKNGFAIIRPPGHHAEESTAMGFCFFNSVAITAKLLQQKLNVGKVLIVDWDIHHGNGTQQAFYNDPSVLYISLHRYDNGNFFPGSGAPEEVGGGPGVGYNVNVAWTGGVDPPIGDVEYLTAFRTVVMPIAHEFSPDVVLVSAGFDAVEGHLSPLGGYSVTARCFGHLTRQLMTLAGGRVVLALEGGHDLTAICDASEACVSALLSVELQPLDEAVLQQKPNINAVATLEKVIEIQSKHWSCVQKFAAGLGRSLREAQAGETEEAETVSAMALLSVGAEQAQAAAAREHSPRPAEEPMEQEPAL
- methodDescription: Inhibition of recombinant HDAC5 assessed as inhibition of fluorogenic aminocoumarin release from substrate by trypsin-coupled biochemical assay
pIC50: −log10 of the molar value.
quantityMeasured: pIC50

Inquiry: Tell me the measured pIC50 of `CC(=O)Nc1ccc(C(=O)COc2nc(C)cc(O)n2)cc1` , please.
Reply text: 4.78

Inquiry: What does the record list as pIC50 for `Cc1cc(O)nc(SCC(=O)c2ccccc2)n1` ?
Reply text: < 4.00

Inquiry: Need pIC50, item `Cc1cc(=O)[nH]c(SCC(=O)c2ccc(C(C)(C)C)cc2)n1`
Reply text: 4.03

Inquiry: Give its pIC50 value. Item: CC(=O)Nc1ccc(C(O)CSc2nc(C)cc(O)n2)cc1 (stereo unspecified)
Reply text: < 4.00

Inquiry: pIC50 for `CCOC(=O)CC(=O)CSc1nc(C)cc(O)n1` ?
Reply text: 4.31

Inquiry: For the molecule shown here, `Cc1cc(=O)[nH]c(SCC(=O)c2ccc(O)cc2)n1` , give the reported pIC50.
Reply text: < 4.00

Inquiry: Can you look up the measured pIC50 of `Cc1cc(O)nc(SCC(=O)C(C)(C)C)n1` for me?
Reply text: < 4.00

Inquiry: Fill in the blank: the reported pIC50 of `Cc1cc(O)nc(SCC(=O)c2cccs2)n1` is ____.
Reply text: < 4.00

Inquiry: Please look up its pIC50: `CC(=O)Nc1ccc(C(=O)CSc2nc(C)cc(C)n2)cc1`
Reply text: < 4.00

Inquiry: Looking for the measured pIC50 of `CC(=O)CSc1nc(C)cc(=O)[nH]1` , can you help?
Reply text: < 4.00

Inquiry: Which pIC50 reading was recorded for the molecule `Cc1cc(=O)[nH]c(SCC(=O)c2ccc(NC(=O)c3ccccc3)cc2)n1` ?
Reply text: < 4.00

Inquiry: Please look up its pIC50: `CC(=O)Nc1ccc(C(=O)COc2cc(C)cc(=O)[nH]2)cc1`
Reply text: < 4.00

Inquiry: Request the reported pIC50 associated with `CC(=O)N(C)c1ccc(C(=O)CSc2nc(C)cc(O)n2)cc1`
Reply text: < 4.00

Inquiry: Data request, read-out pIC50, for `Cc1cc(=O)[nH]c(SCC(=O)NCCCCCCc2ccccc2)n1`
Reply text: < 4.00

Inquiry: What value of measured pIC50 is listed for `COC(=O)CSc1nc(C)cc(=O)[nH]1` ?
Reply text: < 4.00

Inquiry: Reported pIC50, molecule `Cc1cc(=O)[nH]c(SCC(=O)NCCCCc2ccccc2)n1` : ____
Reply text: < 4.00

Inquiry: Given `COc1cc(C)nc(SCC(=O)c2ccc(NC(C)=O)cc2)n1` , state its recorded pIC50.
Reply text: < 4.00

Inquiry: Quick check: pIC50 of `CC(=O)Nc1ccc(CSc2nc(C)cc(O)n2)cc1` ?
Reply text: < 4.00

Inquiry: What value of pIC50 has been recorded for this entry: `CC(=O)Nc1ccc(C(=O)CSc2cccc(O)c2)cc1`
Reply text: < 4.00

Inquiry: Any idea what its pIC50 is? The molecule is `Cc1cc(O)nc(SCC(=O)NCCc2ccccc2)n1`
Reply text: < 4.00

Inquiry: Look up pIC50 for this molecule: `CC(=O)Nc1ccc(C(=O)CSc2nccc(C)n2)cc1`
Reply text: < 4.00

Inquiry: Could you share which pIC50 value was measured for `Cc1cc(O)nc(SCC(=O)c2ccc(O)c(O)c2)n1` ?
Reply text: < 4.00

Inquiry: Entry under review: `CC(=O)Nc1ccc(C(=O)CSc2nc(C)cc(O)n2)cc1` . Reported pIC50?
Reply text: 4.55

Inquiry: Quick check: pIC50 of `COc1ccc(C(=O)CSc2nc(C)cc(O)n2)cc1` ?
Reply text: < 4.00

Inquiry: Look at this molecule and give its reported pIC50. `Cc1cc(O)nc(SCC(=O)c2ccc(Cl)cc2)n1`
Reply text: < 4.00

Inquiry: Could you share which pIC50 value was measured for `Cc1cc(=O)[nH]c(SCC(=O)c2ccc3c(c2)OCCO3)n1` ?
Reply text: < 4.00
